Entries annotated with measured IC50
- Measurement target: HCV NS3/4A protease complex, BMS strain (UniProt P27958, C1454S/C1711G, species not given/STRAIN_BMS)
- Assay summary: Recombinant HCV NS3/4A protease complex FRET peptide assay (BMS strain)
- Assay type: biochemical, HCV genotype 1a
- Particulars: NS3/4A BMS strain; read-out: IC50 range

Would you please look over these solved cases?
C=C[C@@H]1C[C@]1(NC(=O)[C@@H]1CC(Oc2nccc3cc(OC)ccc23)CN1C(=O)[C@@H](NC(=O)OC(C)(C)c1ccccc1)C(C)(C)C)C(=O)NS(=O)(=O)C1CC1 (stereo partly shown) [Compound 72] :: < 100 nM
C=C[C@@H]1C[C@]1(NC(=O)[C@@H]1CC(Oc2nccc3cc(OC)ccc23)CN1C(=O)[C@@H](NC(=O)N(C)C(C)(C)C)C(C)(C)C)C(=O)NS(=O)(=O)C1CC1 (stereo partly shown) [Compound 77] :: < 100 nM
C=C[C@@H]1C[C@]1(NC(=O)[C@@H]1C[C@@H](Oc2cc(-c3ccccc3)nc3c(C)noc23)CN1C(=O)[C@@H](NC(=O)OC(C)(C)C)C(C)(C)C)C(=O)NS(=O)(=O)C1CC1 [Compound 1] :: < 100 nM
C=CC1C[C@]1(NC(=O)[C@@H]1C[C@@H](COc2ccnc3ccccc23)CN1C(=O)[C@@H](NC(=O)OC)C(C)(C)C)C(=O)NS(=O)(=O)C1CC1 (stereo partly shown) [Compound 344] :: 100 to 1000 nM
C=C[C@@H]1C[C@]1(NC(=O)[C@@H]1C[C@@H](Oc2nccc3cc(OC)c(F)cc23)CN1C(=O)[C@@H](NC(=O)OC(C)(C)C)C(C)(C)C)C(=O)NS(=O)(=O)C1CC1 [Compound 261] :: < 100 nM

Per the records, this compound ( C=C[C@@H]1C[C@]1(NC(=O)[C@@H]1C[C@@H](Nc2nc(-c3ccccc3)cs2)CN1C(=O)[C@@H](NC(=O)OC(C)(C)C)C(C)(C)C)C(=O)NS(=O)(=O)C1CC1 [Compound 53] ) has IC50 equal to 100 to 1000 nM

Per the records, this compound ( C=C[C@@H]1C[C@]1(NC(=O)[C@@H]1C[C@@H](Oc2ccnc(-c3cccn3C)c2)CN1C(=O)[C@@H](NC(=O)OC(C)(C)C)C(C)(C)C)C(=O)NS(=O)(=O)C1CC1 [Compound 434] ) has IC50 equal to < 100 nM

Per the records, this compound ( C=CC1C[C@]1(NC(=O)[C@@H]1C[C@@H](COc2cccc(Br)c2)CN1C(=O)[C@@H](NC(=O)OC)C(C)(C)C)C(=O)NS(=O)(=O)C1CC1 (stereo partly shown) [Compound 345] ) has IC50 equal to 1000 to 10000 nM

Per the records, this compound ( CC[C@@H]1C[C@]1(NC(=O)[C@@H]1C[C@@H](Oc2nccc3ccc(C)cc23)CN1C(=O)[C@@H](NC(=O)OC(C)(C)C)C(C)(C)C)C(=O)NS(=O)(=O)C1CC1 [Compound 296] ) has IC50 equal to < 100 nM

Per the records, this compound ( C=C[C@@H]1C[C@]1(NC(=O)[C@@H]1C[C@@H](Oc2nccc3ccccc23)CN1C(=O)[C@@H](NC(=O)COC)C(C)(C)C)C(=O)NS(=O)(=O)C1CC1 [Compound 131] ) has IC50 equal to 100 to 1000 nM
